The following binders are listed with their measured kon values.
# test-target: T1, recombinant human tau (human, UniProt P10636-6 1-383, limits assumed)
# T1 construct: also called recombinant tau
# T1 sequence (P10636 other isoform, or with tags, fused parts or gaps limits assumed): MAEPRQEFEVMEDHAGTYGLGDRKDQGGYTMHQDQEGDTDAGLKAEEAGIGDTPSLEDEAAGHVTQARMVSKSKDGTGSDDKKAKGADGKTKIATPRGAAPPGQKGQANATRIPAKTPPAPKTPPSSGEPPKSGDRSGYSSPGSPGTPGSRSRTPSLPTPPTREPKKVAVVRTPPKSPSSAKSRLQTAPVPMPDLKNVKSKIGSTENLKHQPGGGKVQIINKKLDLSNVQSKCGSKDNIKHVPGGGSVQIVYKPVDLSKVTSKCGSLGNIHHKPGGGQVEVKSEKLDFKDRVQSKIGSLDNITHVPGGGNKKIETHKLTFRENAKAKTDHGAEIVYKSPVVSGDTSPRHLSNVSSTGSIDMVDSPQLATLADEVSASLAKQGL
# assay-comment: SPR, Biacore T200, antibody captured by anti-human antibody, tau as analyte, single cycle, 1:1 fit

binder	kon
Hu3D6VHvb2 / Hu3D6VLvb3 (antibody, V domains shown, Humanized 3D6 variant, expressed as intact antibody in HEK-293 cells; also called VHvb2/VLvb3) VH: EVQLVQSGAEVVKPGASVKISCKASGFNIKDYYLHWVRQRPGKGLEWIGWIDPENGDTVYDPKFQGRATITADTSTDTAYLELSSLTSEDTAVYFCSTLDFWGQGTLVTVSS VL: DVVMTQSPLSLSVTLGEPASISCRSSQSLLDSDGKTYLNWLQQRPGQSPRRLIYLVSKLDSGVPDRFSGSGSGTDFTLKISRVEAEDVGVYYCWQGTHFPYTFGQGTKLEIKR	1.6e+06 M⁻¹ s⁻¹

Then there is this binder:
Request: Look up kon for this binder: Hu3D6VHvb4 / Hu3D6VLvb3 (antibody, V domains shown, Humanized 3D6 variant, expressed as intact antibody in HEK-293 cells; also called VHvb4/VLvb3) VH: EVQLVQSGAEVVKPGATVKISCKASGFTIKDYYLHWVRQRPGKGLEWIGWIDPENGDTIYDPKFQGRVTITADTSTDTAYMELSSLRSEDTAVYYCSTLDFWGQGTLVTVSS VL: DVVMTQSPLSLSVTLGEPASISCRSSQSLLDSDGKTYLNWLQQRPGQSPRRLIYLVSKLDSGVPDRFSGSGSGTDFTLKISRVEAEDVGVYYCWQGTHFPYTFGQGTKLEIKR
Result: 910000 M⁻¹ s⁻¹

Attribution: patent US20220153821A1
